experiment description: Cytotoxicity against human KM-H2 cells assessed as cell viability at 10 uM after 72 to 96 hrs by JC-1 staining-based fluorescence assay
condition context: read-out: Activity
Assign viability at 10 µM to each entry below.

Cc1cc(C#N)ccc1N1CCN(S(=O)(=O)N[C@H](CCCNC(=O)OCc2ccccc2)C(=O)NO)CC1 : > 96%
O=C(NCCC[C@@H](NS(=O)(=O)c1ccc(OCc2cc(Br)cc(Br)c2)cc1)C(=O)NO)OCc1ccccc1 : > 96%

Incoming: Entry under review: Cc1cc(C#N)ccc1N1CCN(S(=O)(=O)N2CSC[C@@H]2C(=O)NO)CC1 . Reported viability at 10 µM?
Outgoing: > 96%

----------
Assign pIC50 to each entry below.
measured on: Disintegrin and metalloproteinase domain-containing protein 10 (Homo sapiens)
experiment description: Inhibition of recombinant human ADAM-10 using Mca-Lys-Pro-Leu-Gly-Leu-Dap(Dnp)-Ala-Arg-NH2 as substrate after 1 hr by fluorometric assay
One number for each entry, as −log10 of the molar value.

CNC(=O)[C@@H](NC(=O)[C@H](CCCc1ccccc1)[C@H](C)N(O)C=O)C(C)(C)C : 7.57
Cc1cc(C#N)ccc1N1CCN(S(=O)(=O)N[C@H](CCCNC(=O)OCc2ccccc2)C(=O)NO)CC1 : 8.04

Note: attention shifts to another entry.
Incoming: Entry under review: Cc1cc(C#N)ccc1N1CCN(S(=O)(=O)N2CSC[C@@H]2C(=O)NO)CC1 . Reported pIC50?
Outgoing: 7.40

----------
Assign pIC50 to each entry below.
measured on: Disintegrin and metalloproteinase domain-containing protein 10 (Homo sapiens, UniProt O14672)
Sequence (O14672 whole entry, the tested form may be a part): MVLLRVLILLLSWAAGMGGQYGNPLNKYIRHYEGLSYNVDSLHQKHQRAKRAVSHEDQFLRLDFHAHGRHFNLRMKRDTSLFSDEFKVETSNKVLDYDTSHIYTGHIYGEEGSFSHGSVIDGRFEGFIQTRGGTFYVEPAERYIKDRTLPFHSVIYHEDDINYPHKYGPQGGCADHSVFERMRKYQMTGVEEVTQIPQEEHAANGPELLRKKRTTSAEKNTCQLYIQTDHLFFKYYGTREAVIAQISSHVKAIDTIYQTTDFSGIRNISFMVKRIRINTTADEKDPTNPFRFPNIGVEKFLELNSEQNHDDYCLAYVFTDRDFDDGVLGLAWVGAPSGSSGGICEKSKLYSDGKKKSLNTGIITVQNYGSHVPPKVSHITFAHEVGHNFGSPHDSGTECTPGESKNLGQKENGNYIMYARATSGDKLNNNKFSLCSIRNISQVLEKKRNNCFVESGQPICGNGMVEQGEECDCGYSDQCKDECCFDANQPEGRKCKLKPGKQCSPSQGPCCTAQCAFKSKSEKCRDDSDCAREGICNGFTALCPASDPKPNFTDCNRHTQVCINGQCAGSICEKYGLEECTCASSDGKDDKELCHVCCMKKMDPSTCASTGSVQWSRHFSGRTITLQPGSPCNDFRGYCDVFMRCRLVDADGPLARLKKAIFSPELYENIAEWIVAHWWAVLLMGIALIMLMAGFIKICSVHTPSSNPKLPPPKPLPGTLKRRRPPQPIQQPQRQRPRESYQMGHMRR
experiment description: Inhibition of ADAM-10 in human KM-H2 cells assessed as reduction in pervanadate-induced soluble ULBP3 shedding after 24 hrs by ELISA
Assay type: cell-based
Answers are plain numbers, as −log10 of the molar value.

Field: example entries. Status: answers known.
O=C(NCCC[C@@H](NS(=O)(=O)c1ccc(OCc2cc(Br)cc(Br)c2)cc1)C(=O)NO)OCc1ccccc1 : 4.82
CNC(=O)[C@@H](NC(=O)[C@H](CCCc1ccccc1)[C@H](C)N(O)C=O)C(C)(C)C : 5.00
Cc1cc(C#N)ccc1N1CCN(S(=O)(=O)N2CSC[C@@H]2C(=O)NO)CC1 : 5.15

Note: attention shifts to another entry.
Incoming: Entry under review: Cc1cc(C#N)ccc1N1CCN(S(=O)(=O)N[C@H](CCCNC(=O)OCc2ccccc2)C(=O)NO)CC1 . Reported pIC50?
Outgoing: 5.00

----------
measured on: Disintegrin and metalloproteinase domain-containing protein 10 (Homo sapiens, UniProt O14672)
experiment description: Inhibition of ADAM-10 in human L428 cells assessed as reduction in pervanadate-induced soluble MICB shedding after 24 hrs by ELISA
Assay type: cell-based, L-428
recorded endpoint: pIC50
Numbers only, as −log10 of the molar value.

Field: example entries. Status: answers known.
Cc1cc(C#N)ccc1N1CCN(S(=O)(=O)N[C@H](CCCNC(=O)OCc2ccccc2)C(=O)NO)CC1 : 5.15
CNC(=O)[C@@H](NC(=O)[C@H](CCCc1ccccc1)[C@H](C)N(O)C=O)C(C)(C)C : 4.92
O=C(NCCC[C@@H](NS(=O)(=O)c1ccc(OCc2cc(Br)cc(Br)c2)cc1)C(=O)NO)OCc1ccccc1 : 4.82

Note: attention shifts to another entry.
Incoming: Entry under review: Cc1cc(C#N)ccc1N1CCN(S(=O)(=O)N2CSC[C@@H]2C(=O)NO)CC1 . Reported pIC50?
Outgoing: 5.30
